tested on: SK-MEL-5 melanoma; experiment: NCI-60 one-dose screen, 48 h; conditions: 10 µM unless noted
About 83,000 compounds went through this panel and 20% of them were active in at least one assay; those are over-represented in the sample as a whole. Calls of active or inactive are those of the source. The calls were made as follows: active = growth percent below 10; inactive = the rest.
Outcomes: active, inactive

{"Compound": "CCOC(=O)/C(=C\\c1ccc(-c2ccccc2)cc1)C(C)=O", "Measured on": "SK-MEL-5 melanoma", "Answer label": "inactive"}
{"Compound": "C1=C(c2ccccc2)C(c2ccc(OCCN3CCCCC3)cc2)Oc2ccccc21 (configuration not stated)", "Measured on": "SK-MEL-5 melanoma", "Answer label": "active"}
{"Compound": "COc1cc(NS(C)(=O)=O)ccc1Nc1c2ccccc2nc2ccccc12", "Measured on": "SK-MEL-5 melanoma", "Answer label": "active"}
{"Compound": "CNC(=O)N/N=C/c1ccc([N+](=O)[O-])o1", "Measured on": "SK-MEL-5 melanoma", "Answer label": "inactive"}
{"Compound": "OC(CNc1ccnc2cc(Cl)ccc12)CNc1ccnc2cc(Cl)ccc12", "Measured on": "SK-MEL-5 melanoma", "Answer label": "inactive"}
{"Compound": "Oc1c(Br)cc(Cl)cc1C(c1cc(Cl)cc(Br)c1O)C(Cl)(Cl)Cl", "Measured on": "SK-MEL-5 melanoma", "Answer label": "active"}
{"Compound": "NC1=CC(=O)c2ccccc2C1=O", "Measured on": "SK-MEL-5 melanoma", "Answer label": "inactive"}
{"Compound": "C=C(Cl)C(=NC(C)(C)C)Nc1ccccc1C", "Measured on": "SK-MEL-5 melanoma", "Answer label": "inactive"}
{"Compound": "Cc1cc2nc(CS)[nH]c2cc1C", "Measured on": "SK-MEL-5 melanoma", "Answer label": "inactive"}
{"Compound": "O[C@H]1[C@H]2c3cc4c(cc3CN3CCC(=C[C@@H]1O)[C@H]23)OCO4", "Measured on": "SK-MEL-5 melanoma", "Answer label": "inactive"}
{"Compound": "CC1OC(OC2C(OC3CCC4(C)C(CCC5(C)C4CC=C4C6CC(C)(C)CCC6(CO)C(O)CC45C)C3(C)C)OC(C(=O)O)C(OC3OC(COC4OC(CO)C(O)C(O)C4O)C(O)C(O)C3O)C2O)C(O)C(O)C1O (configuration not stated)", "Measured on": "SK-MEL-5 melanoma", "Answer label": "active"}
{"Compound": "CC(=O)ON=C1C=CC(=C(C#N)c2ccccc2)C=C1", "Measured on": "SK-MEL-5 melanoma", "Answer label": "inactive"}
{"Compound": "CCN(CC)CC(C)(C)C(=O)/C=C/c1ccc(Cl)c(Cl)c1", "Measured on": "SK-MEL-5 melanoma", "Answer label": "active"}
{"Compound": "CC(C)(C)c1ccc(O)c(C2CCCCC2)c1", "Measured on": "SK-MEL-5 melanoma", "Answer label": "inactive"}
{"Compound": "Cc1ccc(C(=Nc2ccccc2)N=P(c2ccccc2)(c2ccccc2)c2ccccc2)cc1", "Measured on": "SK-MEL-5 melanoma", "Answer label": "active"}
{"Compound": "O=C1C2=C(Nc3cc([N+](=O)[O-])ccc3N2)OC1c1c2ccccc2cc2ccccc12 (configuration not stated)", "Measured on": "SK-MEL-5 melanoma", "Answer label": "inactive"}
{"Compound": "NC(=S)N/N=C/c1ccc(Cl)s1", "Measured on": "SK-MEL-5 melanoma", "Answer label": "inactive"}
{"Compound": "O=C1c2ccccc2C(=O)c2sc(Nc3ccc(Cl)cc3)nc21", "Measured on": "SK-MEL-5 melanoma", "Answer label": "inactive"}
{"Compound": "O=C(/C=C/C=C/c1ccccc1)c1ccco1", "Measured on": "SK-MEL-5 melanoma", "Answer label": "inactive"}
{"Compound": "NC(=O)/C=C/C(=O)c1c(Cl)cccc1Cl", "Measured on": "SK-MEL-5 melanoma", "Answer label": "active"}
{"Compound": "COc1ccc2nc3cc(Cl)ccc3c(NCCNc3c4ccc(Cl)cc4nc4ccc(OC)cc34)c2c1", "Measured on": "SK-MEL-5 melanoma", "Answer label": "active"}
{"Compound": "CCC(=O)Sc1ccccc1C(=O)Nc1ccc(Cl)cc1", "Measured on": "SK-MEL-5 melanoma", "Answer label": "inactive"}
